compounds and their reported z-score
assay: JC-1 mitochondrial signal, unstimulated HepG2 cells – cell-based, JC-1 fluorescence, 24 h, 100 nL compound, profiling panel (AID 1167); conditions: HepG2 mitochondrial potential, higher = more signal; also: test concentration not given here
Form field (numeric): enter value without unit.

As a guide, the following entries are already answered.
Smi	Reported measurement
[N-]=[N+]=Nc1ccccc1C[C@]1(C(=O)N2CCOCC2)N=C(c2ccc(OCCCO)cc2)O[C@H]1c1ccccc1N=[N+]=[N-]	1.81
COCCOC(=O)N1C(=O)[C@@]2(c3cc(C#CCCO)ccc31)[C@H](C(N)=O)[C@H]1C(=O)O[C@H](c3ccccc3)[C@H](c3ccccc3)N1[C@@H]2c1ccccc1OCCO	-0.529

I have this compound here, COc1ccc([Si](C)(C)[C@H]2[C@H](CC(=O)N3Cc4ccccc4C[C@H]3CO)O[C@@]3(C(=O)N(C)c4ccccc43)[C@@H]2C)cc1 , and I need its recorded z-score.
-0.592

---

experiment: probe aLefty1 binding on compound microarray – biochemical, small-molecule microarray, 635/667 nm fluorescence, primary screen (AID 1153); details: higher = more signal;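 also: score merges spot fluorescence with signal-to-noise ratio from the scanned slide images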
Rule: composite z-score of -0.004 or more gives fulfilled; anything lower gives not fulfilled.

Answered examples (2):
Compound	Label
O=C(NCc1ccccc1)[C@@H]1c2ccccc2C(=O)N(Cc2ccc(OC(F)(F)F)cc2)[C@H]1c1ccc(CO)cc1	fulfilled
O=C(NCC(O)CO)C1N=C(c2ccc(OCCCO)cc2)N(c2ccccc2)O1 (stereo not drawn)	not fulfilled

Confirm if composite z-score reported for the compound CC(C)C(CO)N1C(=O)[C@@H]2C3C(=O)OCCC/C=C\[C@H]3OC23C=CCN(Cc2ccccc2)C(=O)[C@@H]13 (stereo partly drawn) is -0.004 or above.
fulfilled

Repeat for the following compound: CO[C@H]1O[C@H](CO)[C@@H](OC(=O)Nc2ccccc2)[C@H](OC(=O)Nc2ccccc2)[C@H]1OC(=O)Nc1ccccc1
fulfilled

---

molecules and their reported z-score
assay: S6 kinase pathway phospho-S6 level changes – cell-based, A549, cytoblot, luminescence, serum-stimulated, primary screen (AID 1158); details: 5 h, higher = more signal;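 also: serum-stimulated A549 lung adenocarcinoma cells; signal is phosphorylated S6 detected by cytoblot immunostaining with HRP secondary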
Form field (numeric): enter value without unit.

As a guide, the following entries are already answered.
Molecule	Reported measurement
C=CC[C@@]1(C(=O)OC)N=C(c2ccc(OCCCO)cc2)O[C@@H]1c1ccccc1N=[N+]=[N-]	0.581
C=CCC(OC(C)=O)[C@@H]1[C@@H](N(Cc2cc3ccccc3o2)C(=O)c2cccc3ccccc23)c2cc(OCCCO)ccc2N1C(=O)c1ccc2ccccc2n1 (some centres not stated)	0.231
CCOC(=O)C1=CC[C@@H](c2ccc(OC)cc2)N(S(=O)(=O)c2ccc(C)cc2)[C@H]1CC	1.27

Now consider a different molecule.
I have this molecule here, CN(C)CCCC[C@@H]1NC(=O)[C@@H]2C[C@H](C(=O)NCCCCCN)[C@H](c3cccc(OCCO)c3)N2C1=O , and I need its recorded z-score.
2.77

---

target: NADPH oxidase 4 (Homo sapiens) (UniProt Q9NPH5); experiment: compounds shifting NOX4 Amplex Red fluorescence – cell-based, HEK293-NOX4, tetracycline-induced, NOX inhibitor project, primary screen (AID 1160); settings: HEK293-NOX4, Amplex Red H2O2 fluorescence, 45 min; higher = more signal, called active from +8 up or from −8 down
Sequence (Q9NPH5 whole entry, looked up): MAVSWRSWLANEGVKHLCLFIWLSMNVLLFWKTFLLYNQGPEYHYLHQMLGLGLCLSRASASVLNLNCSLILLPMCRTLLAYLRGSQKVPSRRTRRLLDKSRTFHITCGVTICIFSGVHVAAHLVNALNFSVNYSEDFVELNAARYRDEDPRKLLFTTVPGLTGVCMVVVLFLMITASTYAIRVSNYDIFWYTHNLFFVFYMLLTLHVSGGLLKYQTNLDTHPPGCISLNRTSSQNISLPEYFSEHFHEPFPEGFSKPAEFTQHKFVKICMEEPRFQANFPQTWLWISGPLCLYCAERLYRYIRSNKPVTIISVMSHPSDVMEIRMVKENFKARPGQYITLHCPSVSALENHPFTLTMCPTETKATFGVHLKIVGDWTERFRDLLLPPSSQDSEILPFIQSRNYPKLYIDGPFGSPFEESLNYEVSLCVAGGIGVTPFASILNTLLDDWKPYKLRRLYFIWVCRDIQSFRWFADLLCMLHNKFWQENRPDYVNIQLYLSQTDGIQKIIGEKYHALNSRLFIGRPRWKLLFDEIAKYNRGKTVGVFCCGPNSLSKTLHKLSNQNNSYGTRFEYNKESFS
Classification field. Basis: z-score. Definitions: interval 1: < -0.5; interval 2: ≥ -0.5 and < 1; interval 3: ≥ 1

Compound	Label
C[N+](C)(C)CCCC[C@@H]1NC(=O)[C@H]2C[C@@H](C(=O)NCCCCCNC(=O)CS)[C@@H](c3cccc(OCCO)c3)N2C1=O	interval 2
COc1cc(CO)cc(I)c1O[C@H]1C=C(C(=O)NCCO)C[C@@H](NC2CCCCCC2)[C@@H]1O	interval 1
C=C(CCCC)/C(=C/C[C@H](OC(=O)c1ccncc1)c1ccccc1OCCO)c1cc(C(=O)OC)ccc1OC	interval 2
COC(=O)[C@@]1(Cc2ccc(OC)cc2)[C@H]2c3cc(C(=O)N4CCCC4)n(CCn4cc([N+](=O)[O-])nc4C)c3C[C@H]2CN1C(=O)c1ccccc1	interval 1
O=C1O[C@H](c2ccccc2)[C@H](c2ccccc2)N2[C@H]1[C@@H](C(=O)O)[C@]1(C(=O)Nc3ccc(C#CCCO)cc31)[C@H]2c1ccc(OCCO)cc1	interval 3

Kindly state the category for this compound: CCCC=C(CCC)[C@@H](NC(=O)c1ccc(C(F)(F)F)cc1)c1ccc(C(F)(F)F)cc1
interval 2

Repeat for the following compound: C=CCC(OC(C)=O)[C@@H]1[C@@H](N(Cc2cccc3ccccc23)C(=O)c2ccc(-c3ccccc3)cc2)c2cc(OCCCO)ccc2N1C(=O)Cc1ccc2ccccc2c1 (some centres undefined)
interval 3

Repeat for the following compound: O=C1O[C@@H](c2ccccc2)[C@@H](c2ccccc2)N2[C@@H](c3ccc(OCCO)cc3)[C@]3(C(=O)Nc4ccc(C#CC5(O)CCCCCC5)cc43)[C@@H](C(=O)Nc3nc4ccccc4s3)[C@H]12
interval 1

Repeat for the following compound: Cc1ccc(N2C(=O)c3ccccc3[C@](C)(C(=O)NCCCN(C)C)[C@@H]2c2ccc(CO)cc2)nc1
interval 2

Repeat for the following compound: [N-]=[N+]=NCc1ccccc1[C@@H]1OC(c2ccc(OCCCO)cc2)=N[C@]1(Cc1ccccc1N=[N+]=[N-])C(=O)O
interval 2

Repeat for the following compound: [N-]=[N+]=Nc1ccccc1[C@@H]1OC(c2ccc(OCCCO)cc2)=N[C@]1(Cc1ccccc1)C(=O)NCCN1CCOCC1
interval 1

Repeat for the following compound: NCCCCCCNC(=O)[C@@H]1C[C@@H]2C(=O)N3CCC[C@H]3C(=O)N2[C@@H]1c1cccc(OCCO)c1
interval 3
